system.under.test: Neuromedin-B receptor (Homo sapiens)
The entries below are paired with their reported Ki.

smiles.repr: CC(C)OC(=O)N[C@@H](Cc1c[nH]c2ccccc12)C(=O)NCCc1c[nH]cn1
assay.result: > 10 µM

smiles.repr: CC(C)OC(=O)N[C@@H](Cc1c[nH]c2ccccc12)C(=O)NCCCCCN
assay.result: > 10 µM

# input for lookup
Identify measured Ki associated with `NCCCCCNC(=O)[C@H](Cc1c[nH]c2ccccc12)NC(=O)OCc1ccccc1`
> 10 µM

====

system.under.test: Neuromedin-B receptor (Homo sapiens, UniProt P28336)
Sequence (P28336 whole entry): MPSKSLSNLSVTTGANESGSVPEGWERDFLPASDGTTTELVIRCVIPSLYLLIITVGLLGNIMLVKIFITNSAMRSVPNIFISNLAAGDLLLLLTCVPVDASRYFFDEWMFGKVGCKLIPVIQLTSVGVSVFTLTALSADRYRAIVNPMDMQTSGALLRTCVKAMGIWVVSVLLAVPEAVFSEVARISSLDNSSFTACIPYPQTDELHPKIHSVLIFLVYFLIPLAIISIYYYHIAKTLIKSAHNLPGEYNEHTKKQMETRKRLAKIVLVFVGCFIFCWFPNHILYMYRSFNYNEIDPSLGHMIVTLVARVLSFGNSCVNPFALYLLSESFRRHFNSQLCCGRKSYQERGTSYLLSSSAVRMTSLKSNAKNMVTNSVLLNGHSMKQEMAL
assay.protocol: Binding affinity for human neuromedin B(hNMB) receptor expressed in CHO cells
Assay type: cell-based
readout.type: Ki

Identify measured Ki associated with `COC(=O)N[C@@H](Cc1c[nH]c2ccccc12)C(=O)NCCc1ccccc1`
> 10 µM

Identify measured Ki associated with `O=C(N[C@@H](Cc1c[nH]c2ccccc12)C(=O)NCCc1ccccc1)OCc1c[nH]cn1`
2.7 µM

Identify measured Ki associated with `CC(C)CCNC(=O)[C@H](Cc1c[nH]c2ccccc12)NC(=O)OCCCCN`
> 10 µM

Identify measured Ki associated with `O=C(N[C@@H](Cc1c[nH]c2ccccc12)C(=O)NCCc1c[nH]c2ccccc12)OCCc1c[nH]c2ccccc12`
0.98 µM

Identify measured Ki associated with `O=C(N[C@@H](Cc1c[nH]c2ccccc12)C(=O)NCCc1c[nH]cn1)OCc1ccccc1`
> 10 µM

Identify measured Ki associated with `O=C(N[C@@H](Cc1c[nH]c2ccccc12)C(=O)NCCO)OCCc1c[nH]c2ccccc12`
> 10 µM

Identify measured Ki associated with `NCCCCCNC(=O)[C@H](Cc1c[nH]c2ccccc12)NC(=O)OCCCCN`
> 10 µM

Data credit: ChEMBL document CHEMBL1130494
